Provide the recorded pEC50 for the entries that follow.
# System: BxPC-3
# assay_details: In vitro cell proliferation assay (MTT)
# Type: cell-based
# reported_conditions: Homo sapiens, BXPC-3, 72 h
pEC50: −log10 of the molar value.

Some entries whose results are on file:
COC(=O)c1cc2cc(NCc3cc(NC(=O)c4ccc(CN5CCN(C)CC5)c(C(F)(F)F)c4)ccc3C)cnc2[nH]1 [OR0512] : ≥ 7.00
COC(=O)c1cc2cc(NCc3cc(NS(=O)(=O)c4ccc(C)cc4)ccc3C)cnc2[nH]1 [OR0595] : ≤ 6.00
COC(=O)c1cc2cc(NCc3ccc(C)c(NC(=O)c4ccc(CN5CCN(C)CC5)c(C(F)(F)F)c4)c3)cnc2[nH]1 [OR0622] : ≤ 6.00

Record pEC50 for all entries; do not skip any.
1. COC(=O)c1cc2cc(NCc3cc(NC(=O)c4cccc(C(F)(F)F)c4)ccc3C)cnc2[nH]1 [OR0606]
2. COC(=O)c1cc2cc(NCc3cc(NC(=O)c4ccc(CN5CCOCC5)c(C(F)(F)F)c4)ccc3C)cnc2[nH]1 [OR0598]

Found:
1. 6.00 to 7.00
2. 6.00 to 7.00

Quick request: pEC50 for each listed item, please.
1. COC(=O)c1cc2cc(NCc3cc(NC(=O)c4ccc(CN5CCC(O)CC5)c(C(F)(F)F)c4)ccc3C)cnc2[nH]1 [OR0636]
2. COC(=O)c1cc2cc(NC(=O)c3cc(NC(=S)c4cc(-n5cnc(C)c5)cc(C(F)(F)F)c4)ccc3C)cnc2[nH]1 [OR0643]

Found:
1. 6.00 to 7.00
2. ≤ 6.00
